Reference for the values: patent US8735322B2

Test system: Avena fatua (AVEFA)
TEST PROTOCOL: Example A post-emergence herbicidal activity, glasshouse pot test
Assay type: in vivo
CONDITION SUMMARY: 360 h, rate 500 g/ha, evaluated 15 days after spraying, read-out: herbicidal damage AVEFA (100=total damage to plant; 0=no damage to plant)
Experimental: Seeds of a variety of test species were sown in standard soil in pots. […] The test plants were then grown in a greenhouse under optimum conditions until, 15 days later for post-emergence and 20 days for pre-emergence, the test was evaluated (100=total damage to plant; 0=no damage to plant). […]
PARAMETER MEASURED: pest or weed control at 500 g/ha (%)
Give bare numbers, in %.

{"columns": ["MOLECULE", "PARAMETER MEASURED", "NUMERIC READOUT"],
 "data": [
  ["CCc1cc(C)cc(CC)c1C1=C(O)CC(CC2OCCO2)CC1=O (centres unmarked) [Compound A-6]", "pest or weed control at 500 g/ha", 100]
]}

Hi there! I need pest or weed control at 500 g/ha for each item below, if you can.
1. CCc1cc(C)cc(CC)c1C1=C(O)CC(CC2CCSCC2)CC1=O (centres unmarked) [Compound A-14]
2. Cc1ccc(-c2ccc(Cl)cc2)cc1C1=C(O)CC(C(C)C2CCOCC2)CC1=O (centres unmarked) [Compound A-15]
3. Cc1cc(C)c(C2=C(O)CC(C(C)C3CCOCC3)CC2=O)c(C)c1 (centres unmarked) [Compound A-10]

Output line:
100
30
80

Report pest or weed control at 500 g/ha for each item below.
1. CCc1cc(C)cc(CC)c1C1=C(O)CC(CC2CC[S+]([O-])CC2)CC1=O (centres unmarked) [Compound A-16]
2. CCc1cc(C)cc(CC)c1C1=C(O)CC(CC2CCOCC2)CC1=O (centres unmarked) [Compound A-5]
3. Cc1cc(C)c(C2=C(OC(=O)C(C)(C)C)CC(CC3CCOC3)CC2=O)c(C)c1 (centres unmarked) [Compound B-1]
4. CCc1cc(C)cc(CC)c1C1=C(O)CC(C(C)C2CCOCC2)CC1=O (centres unmarked) [Compound A-11]

Output line:
1. 90
2. 90
3. 0
4. 90
